Values were extracted from patent US9314453B2.

readoutName: melting point

[[record]]
smilesstr = "Cc1nc2c3c(ccn2c1C)[C@H](OC(C)C)[C@H](O)[C@@H](c1ccccc1)N3"
measvalue = "168 to 169 °C"

[[record]]
smilesstr = "CO[C@H]1c2ccn3c(C)c(C)nc3c2N[C@H](c2ccccc2)[C@H]1O"
measvalue = "108 to 110 °C"

[[record]]
smilesstr = "CO[C@H]1c2ccn3c(C)c(C)nc3c2N[C@@H](c2ccccc2)[C@@H]1O"
measvalue = "161 to 162 °C"

[[record]]
smilesstr = "CCO[C@H]1c2ccn3c(C)c(C)nc3c2N[C@H](c2ccccc2)[C@H]1O"
measvalue = "135 to 137 °C"

[[record]]
smilesstr = "CO[C@@H]1[C@@H](c2ccccc2)Nc2c(ccn3c(C)c(C)nc23)[C@H]1OC"
measvalue = "155 to 156 °C"

[[record]]
smilesstr = "CO[C@@H]1c2ccn3c(C)c(C)nc3c2N[C@@H](c2ccccc2)[C@@H]1O"
measvalue = "171 to 172 °C"

